So I've got a bunch of binders here, and I need their pKd values.
Target: T1, Activin A (UniProt P08476 311-426)
T1 sequence (looked up): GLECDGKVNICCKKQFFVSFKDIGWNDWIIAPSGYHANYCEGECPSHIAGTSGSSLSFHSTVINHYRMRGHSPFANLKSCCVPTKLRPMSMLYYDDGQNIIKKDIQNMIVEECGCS
Experiment: SPR (Biacore 8K), Fc protein captured on anti-human IgG, ligand injected
Give bare numbers, as −log10 of the molar value.

// solved cases for pKd follow
# binder, pKd
rows = [
    ("ActRIIA-A3 (SEQ ID NO: 106) chimera-Fc protein (Fc fusion, Tested as chimera-Fc protein; not shown: linker (if any) and Fc domain) GAILGRSETQECLFFNANWEKDRTNQTGVEPCEGEQDKRRHCFATWKNISGSIEIVKQGCWLDDINCYDRTDCVEKKDSPEVYFCCCEGNMCNEKFSYFPEMEVTQPTS", 10.45),
    ("ActRIIA-A1 (SEQ ID NO: 104) chimera-Fc protein (Fc fusion, Tested as chimera-Fc protein; not shown: linker (if any) and Fc domain) GRGEAETRECLFFNANWEKDRTNQTGVEPCYGDKDKRRHCFATWKNISGSIEIVKQGCWLDDINCYDRTDCVEKKDSPEVYFCCCEGNMCNEKFSYFPEMEVTQPTS", 10.15),
    ("ActRIIB-B5 (SEQ ID NO: 114) chimera-Fc protein (Fc fusion, Tested as chimera-Fc protein; not shown: linker (if any) and Fc domain) GRGEAETRECIYYNANWELERTNQSGLERCEGEQDKRLHCYASWRNSSGTIELVKKGCWLDDFNCYDRQECVEKEENPQVYFCCCEGNFCNERFTHLPEAGGPEVTYEPPPTAPT", 11.49),
]

With those in mind, consider the next binder.
input: // fetch pKd given entry ActRIIA-B1B7 (SEQ ID NO: 101) chimera-Fc protein (Fc fusion, Tested as chimera-Fc protein; also called ActRIIA-B1β7; not shown: linker (if any) and Fc domain) GAILGRSETQECIYYNANWEKDRTNQTGVEPCYGDKDKRRHCFATWKNISGSIEIVKQGCWLDDINCYDRTDCVEKKDSPEVYFCCCEGNMCNERFTHLPEMEVTQPTS
output: 10.66
